FYI, the data here is from paper PMC3478282.

# tested.target: YjdL Tyr25Phe (Escherichia coli, UniProt P39276, Y25F)
# Sequence (P39276 1-485 Y25F): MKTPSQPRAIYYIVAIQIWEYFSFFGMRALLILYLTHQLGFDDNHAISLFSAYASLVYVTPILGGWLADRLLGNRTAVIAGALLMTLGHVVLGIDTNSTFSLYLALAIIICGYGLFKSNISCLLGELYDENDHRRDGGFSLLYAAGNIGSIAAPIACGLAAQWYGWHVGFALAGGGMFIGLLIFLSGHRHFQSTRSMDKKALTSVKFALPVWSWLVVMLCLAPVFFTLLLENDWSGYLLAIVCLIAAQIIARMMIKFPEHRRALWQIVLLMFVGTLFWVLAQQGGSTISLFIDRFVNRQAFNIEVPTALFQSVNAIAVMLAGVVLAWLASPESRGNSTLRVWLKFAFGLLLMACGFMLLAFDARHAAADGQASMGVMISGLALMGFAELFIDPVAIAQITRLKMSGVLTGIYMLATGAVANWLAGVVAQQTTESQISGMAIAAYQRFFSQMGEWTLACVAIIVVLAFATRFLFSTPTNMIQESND
# experiment: β-Ala-Lys(AMCA) uptake and inhibition assay, YjdL Tyr25Phe
# applied.conditions: 0.2 mM β-Ala-Lys(AMCA), 5 min incubation, pH 6.5; ±SEM, n≥3
Residues, ends and D or L forms follow the SMILES beside them.
measure.name: pIC50
Answer as the number alone; pIC50 is minus log10 of concentration in mol/L.

Looking up C[C@H](NC(=O)[C@@H](N)Cc1ccc(O)cc1)C(=O)O , I see its pIC50 listed as 1.47

Looking up C[C@H](N)C(=O)N[C@@H](CCCCN)C(=O)O [Ala-Lys] (H-Ala-Lys-OH) , I see its pIC50 listed as 3.40

Looking up NCCCC[C@H](NC(=O)[C@@H](N)Cc1c[nH]c2ccccc12)C(=O)O [Trp-Lys] (H-Trp-Lys-OH) , I see its pIC50 listed as 3.24

Looking up NCCCC[C@H](NC(=O)[C@@H](N)Cc1ccc(O)cc1)C(=O)O [Tyr-Lys] (H-Tyr-Lys-OH) , I see its pIC50 listed as 3.17

Looking up CSCC[C@H](N)C(=O)N[C@@H](CCCCN)C(=O)O [Met-Lys] (H-Met-Lys-OH) , I see its pIC50 listed as 3.21

* * *

# tested.target: YjdL Tyr58Phe (Escherichia coli, UniProt P39276, Y58F)
# Construct: expressed in transfected cells; host or cells: E. coli BL21(DE3)pLysS, pTTQ18-yjdL mutant (QuikChange)
# experiment: β-Ala-Lys(AMCA) uptake and inhibition assay, YjdL Tyr58Phe
# Type: cell-based, E. coli
# applied.conditions: 0.5 mM β-Ala-Lys(AMCA), 15 min incubation, pH 6.5; ±SEM, n≥3; read-out: IC50 (inhibition of β-Ala-Lys(AMCA) uptake), Tyr58Phe b
Residues, ends and D or L forms follow the SMILES beside them.
So I've got a bunch of compounds here, and I need their IC50 values.
Note: unit mM is implicit; provide only the numeric part.

Looking up C[C@H](NC(=O)[C@@H](N)Cc1ccc(O)cc1)C(=O)O , I see its IC50 listed as 24.1

Looking up C[C@H](N)C(=O)N[C@@H](C)C(=O)O [Ala-Ala] (H-Ala-Ala-OH) , I see its IC50 listed as 28.1
